Numbers sourced from PubChem BioAssay AID1209.

# Target of assay: Mannose-6-phosphate isomerase (Homo sapiens) (UniProt P34949)
# Sequence (P34949 whole entry, looked up): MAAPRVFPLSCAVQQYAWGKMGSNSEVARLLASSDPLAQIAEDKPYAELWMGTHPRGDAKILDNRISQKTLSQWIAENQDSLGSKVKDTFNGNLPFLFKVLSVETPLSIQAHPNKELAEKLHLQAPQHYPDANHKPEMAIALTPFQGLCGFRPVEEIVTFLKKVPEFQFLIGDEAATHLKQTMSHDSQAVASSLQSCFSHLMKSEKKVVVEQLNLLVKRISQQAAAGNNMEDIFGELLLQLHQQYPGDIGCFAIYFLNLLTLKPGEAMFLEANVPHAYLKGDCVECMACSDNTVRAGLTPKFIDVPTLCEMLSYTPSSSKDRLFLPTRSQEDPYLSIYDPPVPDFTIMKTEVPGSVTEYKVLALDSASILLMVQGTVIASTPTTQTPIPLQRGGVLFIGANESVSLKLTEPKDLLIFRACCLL
# Test method notes: inhibitors of human PMI, primary screen, biochemical, fluorescence intensity, coupled assay (AID 1209);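 further: plate controls were DMSO vehicle for no effect and wells lacking substrate for full effect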
# Condition context: purified PMI enzyme, at 20 µM, active compounds read high
Screen size: about 190,000 compounds; about 810 (0.43%) were called active. The full list was thinned out, with actives kept by preference.
The following compounds are listed with their measured inhibition values.
Please reply with the bare figure in % and do not write the unit itself.

Take a look at these entries with their results.
compound="Cc1cc2cc(CN(CC3CCCO3)C(=S)NCc3ccco3)c(=O)[nH]c2cc1C (stereo not given)" target_of_assay="Mannose-6-phosphate isomerase (Homo sapiens) (UniProt P34949)" value_kind=inhibition unit_text=% data_value=9
compound=O=c1[nH]c2cc3c(cc2cc1CN(CCCO)C(=S)NCc1ccco1)OCO3 target_of_assay="Mannose-6-phosphate isomerase (Homo sapiens) (UniProt P34949)" value_kind=inhibition unit_text=% data_value=11.2
compound=CC(C)CNC(=S)N(Cc1ccco1)Cc1cc2cc3c(cc2[nH]c1=O)OCCO3 target_of_assay="Mannose-6-phosphate isomerase (Homo sapiens) (UniProt P34949)" value_kind=inhibition unit_text=% data_value=19.9
compound="Cc1ccc2cc(CN(CC3CCCO3)C(=S)NCc3ccco3)c(=O)[nH]c2c1 (stereo not given)" target_of_assay="Mannose-6-phosphate isomerase (Homo sapiens) (UniProt P34949)" value_kind=inhibition unit_text=% data_value=54.6

Proceeding to the next compound to report its inhibition.
inhibition lookup needed for `CN(C)CCN(Cc1cc2cc3c(cc2[nH]c1=O)OCO3)C(=S)NCc1ccco1` , thanks. 9.6

---

# Target of assay: Mannose-6-phosphate isomerase (Homo sapiens) (UniProt P34949)
# Test method notes: inhibitors of human PMI, primary screen, biochemical, fluorescence intensity, coupled assay (AID 1209);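 further: plate controls were DMSO vehicle for no effect and wells lacking substrate for full effect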
# Condition context: purified PMI enzyme, at 20 µM, active compounds read high
About 810 (0.43%) of roughly 190,000 compounds were called active. The list comes from a sample in which actives are over-represented; it also holds close analogues and randomly drawn compounds.
Value kind: inhibition (%)
Numeric only. Scale: %

compound=O=c1[nH]c2cc3c(cc2cc1CN(Cc1cccnc1)C(=S)NCc1ccco1)OCO3 target_of_assay="Mannose-6-phosphate isomerase (Homo sapiens) (UniProt P34949)" value_kind=inhibition data_value=53.9
compound=NC(=O)c1ccc(C(=O)c2ccc([N+](=O)[O-])cc2)cc1 target_of_assay="Mannose-6-phosphate isomerase (Homo sapiens) (UniProt P34949)" value_kind=inhibition data_value=-7.1
compound=Cc1cccc(N=C2NC(=O)c3cc([N+](=O)[O-])ccc32)c1 target_of_assay="Mannose-6-phosphate isomerase (Homo sapiens) (UniProt P34949)" value_kind=inhibition data_value=-1.4
compound="COc1ccc(C(=O)NC(C)c2ccccc2)cc1Br (stereo unspecified)" target_of_assay="Mannose-6-phosphate isomerase (Homo sapiens) (UniProt P34949)" value_kind=inhibition data_value=3.2
compound=CCNC(=S)N(Cc1ccco1)Cc1cc2cc3c(cc2[nH]c1=O)OCCO3 target_of_assay="Mannose-6-phosphate isomerase (Homo sapiens) (UniProt P34949)" value_kind=inhibition data_value=17.8

What value of measured inhibition is listed for `O=C1NC(=Nc2ccccc2)c2ccc([N+](=O)[O-])cc21` ? 28.5

---

# Target of assay: Mannose-6-phosphate isomerase (Homo sapiens) (UniProt P34949)
# Test method notes: inhibitors of human PMI, primary screen, biochemical, fluorescence intensity, coupled assay (AID 1209);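 further: plate controls were DMSO vehicle for no effect and wells lacking substrate for full effect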
# Condition context: purified PMI enzyme, at 20 µM, active compounds read high
Among all 190,000 compounds or so, about 810 (0.43%) were called active. For the sample, actives were picked, then their nearest neighbours and some compounds at random.
Item-by-item account of inhibition
Number only, in %; omit the unit.

Past entries and their recorded results:
compound="CCC1Oc2ccc(C)cc2N(CC(=O)NCc2ccco2)C1=O (stereo unspecified)" value_kind=inhibition unit_text=% data_value=6.6
compound=COc1ccc(C(=S)N2CCN(c3cccc(Cl)c3)CC2)c(OC)c1 value_kind=inhibition unit_text=% data_value=20.6
compound=COc1ccc(Cn2c(C(F)(F)F)ccc(C(N)=O)c2=O)cc1 value_kind=inhibition unit_text=% data_value=4.9
compound=O=C(Cc1ccccc1)Nc1ccccc1C(=O)O value_kind=inhibition unit_text=% data_value=-3
compound=COc1cc(C(=S)N2CCCC2)cc(OC)c1O value_kind=inhibition unit_text=% data_value=17.5
compound=COc1cc(C(=S)N2CCN(c3ccccc3Cl)CC2)cc(O)c1O value_kind=inhibition unit_text=% data_value=67.5

I have this compound here, `O=C(CNC(=O)c1cccs1)NCC(=O)OCc1cccc(Cl)c1` , and I need its recorded inhibition. 4.5
